tested on: U2OS; assay: Multiplex assay against U2OS; type: toxicity, cell-based; conditions: human, 48 h, 10 µM, compound concentration 10 uM, replicate 1
Examples of compounds with documented Population Tubulin-Different-Phenotype (%) follow.
Lab book: enter the figure in %, no units written.

Some entries whose results are on file:
Cn1cc(-c2[nH]c3cc(NC(=O)[C@H](N)C4CCCCC4)cc4c3c2C=NNC4=O)cn1 : 21
CN1CCN(CCOc2cc(OC3CCOCC3)c3c(Nc4c(Cl)ccc5c4OCO5)ncnc3c2)CC1 : 96

Now take the following compound into account.
Please give the measured Population Tubulin-Different-Phenotype (%) for this compound: COc1cccc([C@@H](C)NCCCc2ccccc2Cl)c1.Cl [TECALCET HYDROCHLORIDE] 62
